assay: chemical genetic growth profiling, strain panel (AID 1159580);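 also: tested at 20 µM; growth read once vehicle control cultures reached saturation at 30 °C; 1 = growth at the plate median or of vehicle wells; lower values mean less growth of the strain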; conditions: S. cerevisiae deletion strains, growth OD, locus YMR223W, strain ubp8, stronger effect = lower value
The campaign covered roughly 5,500 compounds. About 2,000 (36%) were called active. Not shown: some 18% with an inconclusive outcome. The list shows a part of the results.
Known normalized growth of a selection of molecules
// return just the number, without any unit appended

MOLECULE	normalized growth
O=C1C=CC2=C3c4cc(O)c(O)cc4CC3(O)COC2=C1O (stereo not drawn)	1.01
Cc1ccc(/C(=C\CN2CCCC2)c2ccccn2)cc1	0.998
O=C(OC1Cc2c(O)cc(O)cc2OC1c1cc(O)c(O)c(O)c1-c1c(C2Oc3cc(O)cc(O)c3CC2OC(=O)c2cc(O)c(O)c(O)c2)cc(O)c(O)c1O)c1cc(O)c(O)c(O)c1 (stereo not drawn)	0.995

Ask: normalized growth lookup needed for CN/C(=C\[N+](=O)[O-])NCCSCc1ccc(CN(C)C)o1 , thanks.
Result: 0.996

Ask: normalized growth lookup needed for CCCC(C)C1(CC)C(=O)NC(=O)NC1=O (stereo not drawn) , thanks.
Result: 1.04

Ask: normalized growth lookup needed for CS(=O)(=O)CCCCN=C=S , thanks.
Result: 0.735

Ask: normalized growth lookup needed for NCCNC(=O)c1ccc(Cl)cc1 , thanks.
Result: 0.958

Ask: normalized growth lookup needed for C=C[C@](C)(O)CCC=C(C)C , thanks.
Result: 0.994
